ASSAY TEXT: chemical genetic growth profiling, strain panel (AID 1159580);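 note: tested at 20 µM; growth read once vehicle control cultures reached saturation at 30 °C; 1 = growth at the plate median or of vehicle wells; lower values mean less growth of the strain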
COND: S. cerevisiae deletion strains, growth OD, strain wtn01
About 2,000 (36%) of roughly 5,500 compounds were called active. About 18% were inconclusive and are not listed. Cut-off read from the data, not from the text of the source: active = normalized growth mostly below about 0.91 (no sharp cut-off); inconclusive = no clear call, values can overlap the other calls; inactive = mostly above about 0.92. The list shows a part of the results.
Field 'call' accepts 1 (active), 0 (inactive)

CC(=O)Oc1cc(C)c2c(c1C(OC(C)=O)OC(C)=O)Oc1c(c(C)c(OC(C)=O)c3c1C(OC(C)=O)OC3=O)OC2=O (stereo not given) :: 0
CC(=O)O[C@H]1C[C@@H](OC(C)=O)C(C)(C)C2C[C@@H](OC(C)=O)[C@]3(C)C(CC[C@@]4(C)[C@H](c5ccoc5)C(=O)[C@H]5O[C@]543)[C@]21C (stereo not given in full) :: 0
C=CCc1cc(OC)c2c(c1OC)OCO2 :: 0
CC(=O)OC/C=C(C)/C=C/C=C(C)/C=C/C1=C(C)CCCC1(C)C :: 0
CC1CC2C(C(O)CC3(C)C2CCC3(O)C(=O)COC(=O)CCC(=O)O)C2(C)C=CC(=O)C=C12 (stereo not given) :: 0
C[C@H](COc1ccccc1)N[C@H](C)[C@H](O)c1ccc(O)cc1 :: 0
O=C(O)CCCCC1SCC2NC(=O)NC21 (stereo not given) :: 0
CCCSP(=O)(OCC)SCCC :: 0
CO[C@@H]1C[C@@H](C[C@H]2CC[C@H](C)[C@H]([C@@H](C)C(=O)O)O2)O[C@]2(O[C@](C)([C@H]3CC[C@@](C)(C4O[C@@H](C5O[C@@](O)(CO)[C@H](C)C[C@@H]5C)C[C@@H]4C)O3)C[C@H]2C)[C@@H]1C (stereo not given in full) :: 0
Cc1ccc(C(C)C)cc2c(C)ccc1-2 :: 0

**Query** I would be grateful if you could indicate the recorded call for CN1CCc2cccc3c2C1Cc1ccc(O)c(O)c1-3 (stereo not given) .
**Result** 0

**Query** // param item: COc1ccc(/C=C/c2cc(O)cc(O)c2)cc1 ; yields the recorded call
**Result** 1

**Query** Lab log entry: COc1ccc(C[C@H](N)C(=O)N[C@@H]2[C@@H](CO)OC(n3cnc4c(N(C)C)ncnc43)[C@@H]2O)cc1 (stereo not given in full) — outcome as called in the assay?
**Result** 0

**Query** Please share the test call associated with COc1ccccc1N1CCNCC1 .
**Result** 0

**Query** How did this test come out for CCn1cc(C(=O)O)c(=O)c2cnc(N3CCNCC3)nc21 ?
**Result** 0

**Query** Which outcome was assigned to CC1=C(/C=C/C(C)=C/C=C/C(C)=C/C=C/C=C(C)/C=C/C=C(C)/C=C/C2=C(C)CCCC2(C)C)C(C)(C)CCC1 in this test?
**Result** 0

**Query** Recorded test call requested for CC1(C)CC2C1CCC1(C)OC2(C)CCC1O (stereo not given)
**Result** 0

---

ASSAY TEXT: chemical genetic growth profiling, strain panel (AID 1159580);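 note: tested at 20 µM; growth read once vehicle control cultures reached saturation at 30 °C; 1 = growth at the plate median or of vehicle wells; lower values mean less growth of the strain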
COND: S. cerevisiae deletion strains, growth OD, locus YLR268W, strain sec22, stronger effect = lower value
The whole screen tested about 5,500 compounds, of which about 2,000 (36%) were called active. Roughly 18% stayed inconclusive and do not appear here. The list shows a part of the results.
Consider the following compounds and their measured normalized growth readings.

Answered examples (6):
O=C(O)CCCCCCCCCCCCC1C=CCC1 (centres undefined) :: 0.812 (active)
COc1ccccc1N1CCNCC1 :: 1.02 (inactive)
CC(=O)O[C@H]1C[C@@H](OC(C)=O)C(C)(C)C2C[C@@H](OC(C)=O)[C@]3(C)C(CC[C@@]4(C)[C@H](c5ccoc5)C(=O)[C@H]5O[C@]543)[C@]21C (some centres undefined) :: 0.982 (inactive)
CO[C@@H]1C[C@@H](C[C@H]2CC[C@H](C)[C@H]([C@@H](C)C(=O)O)O2)O[C@]2(O[C@](C)([C@H]3CC[C@@](C)(C4O[C@@H](C5O[C@@](O)(CO)[C@H](C)C[C@@H]5C)C[C@@H]4C)O3)C[C@H]2C)[C@@H]1C (some centres undefined) :: 0.929 (inactive)
CCn1cc(C(=O)O)c(=O)c2cnc(N3CCCC3)nc21 :: 0.972 (inactive)
O=C(O)CCCCC1SCC2NC(=O)NC21 (centres undefined) :: 0.99 (inactive)

The compound CCCN(CCC)C(=O)C(CCC(=O)O)NC(=O)c1ccccc1 (centres undefined) showed normalized growth equal to 0.955 (inactive)

response.value for O=C1O[C@@H](CO)[C@H](O)[C@@H](O)[C@@H]1O (field: normalized growth) = 1.01 (inactive)

compound COc1cc(C(=O)O)c(O)c2c1OCO2 , normalized growth observed: 1 (inactive)
